attribute measured: melting point

Lab note: measured melting point of COc1ccccc1CC(=N)N1C[C@@H]2C(=O)CCC(c3ccccc3)(c3ccccc3)[C@@H]2C1 was 190 °C

The value of melting point measured for the compound CCOCc1cc2cc(Cl)ccc2oc1=Nc1ccccc1 turned out to be 58 to 59 °C

The reported melting point of the compound CCCNC(=S)NC1=Nc2ccc(OC(F)(F)F)cc2CS1 was 148 to 151 °C

Lab book: melting point of COC(=O)COc1ccc(-c2ccc(C(=O)OCc3ccccc3)cc2)cc1-c1ccc2c(c1)C(C)(C)CCC2(C)C noted as 104 to 106 °C

Lab book: melting point of O=[N+]([O-])c1c(SCc2ccccc2)ccc2ccncc12 noted as 151 to 153 °C

Documented melting point of O=c1[nH]cccc1-c1cccnc1 : 189 to 192 °C

Reported melting point for O=C(O)Cc1ccccc1CC(=O)Nc1cccc(/C=C/c2nc(C3CCC3)cs2)c1 was 160 to 162 °C

Input Cc1cc(=O)[nH]c2c1C(=O)CC(c1ccccc1Cl)C2 (stereo not given) . Output melting point: 290 to 291 °C

melting point for COc1cccc(NC(=NC#N)NC(NC(=O)c2ccc(Cl)cc2)C(C)(C)C)c1 (stereo not given) is 173 to 175 °C

Entry CSc1c(C(N)=S)nn(-c2c(Cl)cc(C(F)(F)F)cc2Cl)c1N — recorded melting point = 161 °C

====

Please provide measured melting point for the entries that follow.

// field: melting point; key: CC1COc2c(N3CCNC(c4ccccc4)C3)c(F)cc3c(=O)c(C(=O)O)cn1c23 (stereo not given) ; value = 238 to 244 °C

Entry C[C@@H](N1CC(=O)N(c2ccc(OCC(F)(F)C(F)F)cc2)CC1=O)[C@@]1(c2ccc(F)cc2F)CO1 ; melting point = 155 to 156 °C

Cc1ncc([N+](=O)[O-])n1CCn1c(=O)[nH]c2ccccc2c1=O yielded melting point of 261 to 264 °C

// sample CN(C(=O)Nc1ccc(OC(F)(F)F)cc1)c1nc(OCC(F)(F)F)cc(OCC(F)(F)F)n1 , its melting point was 123 to 125 °C

melting point measured on O=C(CCCCCNC(=O)OCc1ccccc1)NCCCCCO = 92.5 to 94 °C

====

Please respond with reported melting point for every item in the list.

Consider CNc1nc(-c2cccc(Oc3ccccc3)c2)c2cc(OC)c(OC)cc2n1 . Its measured melting point is 157 to 159 °C

For record CC(C)(C)c1cc(OCCCCCCC(=O)O)cc(C(C)(C)C)c1 the listed melting point is 88 to 90 °C

So for CCOC(=O)c1c(C(F)(F)F)nc(C(F)F)c(C(=O)OC)c1NC1CC1 , the logged melting point turned out to be 68 to 69.5 °C

melting point reported for this compound O=C(NCc1ccc(F)cc1)c1cccc(C(=O)NCc2ccc(F)cc2)c1 : 190 to 191 °C

Entry Oc1ccc2c(c1)CCCC(c1ccccc1)=C2c1ccc(OCCCCCSCCCCF)cc1 , melting point reported as 163 °C

In plain terms, CCNC(=O)N(O)C(c1ccccc1)c1cc(C(C)(C)C)c(O)c(C(C)(C)C)c1 (centres undefined) has a documented melting point of 158 to 160 °C

Record CC(C)CC(C(=O)O)c1cc(Cl)c(-c2ccc(C(F)(F)F)cc2)c(OCC2CC2)c1 (centres undefined) , field melting point: 115 to 116 °C

response.value for CCn1c(C(C#N)c2cc(C)cc(C#N)c2)c(C(C)C)c(=O)n(COC)c1=O (centres undefined) (field: melting point) = 202 to 205 °C

Memo: Cn1ncnc1COc1nn2c(-c3ccccc3F)nnc2cc1C1CC(F)(F)C1 , reported melting point: 178 °C

====

attribute measured: melting point

The value of melting point measured for the compound Cc1sc2c(c1C)C(c1ccc(Cl)cc1)=NC(CC(=O)O)c1nnc(C)n1-2 (stereo not given) turned out to be 166 to 177 °C

The recorded melting point for CC(=O)c1ccc2nc(NC(=O)c3ccc(C(C)(C)C)cc3)cn2n1 is 237 to 238 °C

The recorded melting point for entry CCCOc1cc(-c2c(C(=O)OCC)c(Cn3cncn3)nc3cc(OC)c(OC)cc23)ccc1OC equals 127 to 128 °C

// melting point lookup, compound = c1ccc(Nc2nccc(-c3ccc(-c4ccc(N(c5ccccc5)c5ccccc5)cc4)cc3)n2)cc1 , result: > 300 °C

Consider CC1CC(Nc2ccc(F)cc2)c2cc(F)ccc2N1 (stereo not given) . Its measured melting point is 120 to 122 °C

Lab note: measured melting point of COc1ccc(CS(=O)(=O)c2cc3ccc(O)cc3oc2=O)cc1[N+](=O)[O-] was 126 to 128 °C

Please fill in: melting point reported for COC(=O)c1ccc(OC(=O)c2ccc(OC)c(C34CC5CC(CC(C5)C3)C4)c2)cc1O = 125 to 127 °C

CCC(COC(C)=O)Nc1c(-c2c(F)cc(F)cc2F)c(Cl)nc2ncnn12 (stereo not given) yielded melting point of 39 to 42 °C

The compound listed as CS(=O)(=O)Nc1ccc(OCC2CCN(c3cc(N)ccn3)CC2)cc1 shows melting point equal to 213 to 214 °C

Measured melting point of CC(C)c1cccc(S(=O)(=O)n2c(CCCC(=O)O)cc3nc(Cl)ccc32)c1 : 119 °C

Measured melting point of CCC1CC(=O)N(Cc2ccc(C(=O)NC3CCCC3)cc2)N=C1c1ccc(OC)c(OC)c1 (stereo not given) : 154 °C

What the record says about CC(C)Nc1nc2ccccc2n2c(C(F)(F)F)nnc12 : melting point is 185 to 187 °C

Measured melting point, C=CCc1c(NC(=O)C(F)(F)F)ccc2c(=O)cc(C(=O)OCC)oc12 : 136 to 137 °C

So, CCOC(=O)c1csc(C)c1N(CC)c1nc(C)cc(C)n1 ? Its melting point was 99 to 100 °C

Quick note, melting point for CC(=O)Nc1cc(-n2c(=O)cc(C(F)(F)F)[nH]c2=O)c(F)cc1Cl landed at 264 to 266 °C

For this compound ( COC(=O)c1cc([N+](=O)[O-])nn1C ), measured melting point is 65 to 66 °C

melting point in this record for O=C(CCCCCN1C(=O)c2ccc([N+](=O)[O-])cc2C1=O)NO : 130 to 132 °C

The compound CCN(CC)C(=O)c1nc[nH]n1 showed melting point equal to 173 to 174 °C

Measured melting point of Cc1cc(-c2ccc(C(F)(F)F)cc2)cn2c(-c3nc(-c4ccc(S(N)(=O)=O)cc4)no3)cnc12 : 290 °C

// field: melting point; key: CC(C)COc1ccccc1C(=N)N ; value = 49 to 51 °C

====

attribute measured: melting point

// melting point value for CC(=O)c1cccc2oc(C(=O)Nc3ccc(-c4ccc(S(=O)(=O)NC(C(=O)O)C(C)C)cc4)cc3)c(C)c12 (stereo not given) : 228 to 235 °C

Reported melting point for CCOC(=O)Cc1csc(Nc2ccc(Cl)c(C(F)(F)F)c2)n1 was 148 to 150 °C

For record CC(C)C[C@H](NCc1ccc(OC(C)(C)C)cc1)C(=O)N1CCN(C(c2ccc(F)cc2)c2ccc(F)cc2)CC1 the listed melting point is 56 to 61 °C

Form: compound = Fc1ccccc1/C=C/c1ccc(N(c2ccccc2)c2ccccc2)cc1 ; melting point = 114 to 115 °C

For reference, reported melting point for CC(C)(C)OC(=O)NC(CO)COc1noc2ccc(Cl)cc12 (stereo not given) stands at 121 to 122 °C

====

Kindly supply the reported melting point values for the records listed here.

Please fill in: melting point reported for COC(=O)c1cc(Br)cc(-c2ccc3c(c2)C(C)(C)CCC3(C)C)c1 = 88 °C

Per the records, this compound ( COc1ccccc1[C@@H]1O[C@@H](CC(=O)O)C(=O)N(CC(C)(C)C)c2ccc(Cl)cc21 ) has melting point equal to 179 to 183 °C

The value of melting point measured for the compound O=c1[nH]nc(-c2cccc([N+](=O)[O-])c2)c2ncccc12 turned out to be 302 °C

Entry O=C(Nc1nc2ccccc2c(=O)n1-c1ccccc1)c1ccccc1 — recorded melting point = 185 to 188 °C

Data point: CCOC(=O)CC(NC(=O)C1=C(C(=O)Nc2ccc(Cl)cc2F)CCCC1)C(=O)OCC (centres undefined) ; melting point = 109 to 110 °C

So for O=C(Nc1ccn2cc(CO)nc2c1)c1cc2cc(C(F)(F)F)ccc2n1Cc1cccc(F)c1 , the logged melting point turned out to be 254 to 255 °C

Measured melting point, O=C(c1ccccc1)c1cc(Cl)cc2c1OCC2C(=O)O (centres undefined) : 155 to 157 °C

# compound CCc1ccccc1-c1cccc(Br)c1OCc1cccc(C(=O)NCCO)c1 ; its melting point = 82.2 to 84.2 °C

// sample CCc1[nH]c2ccc(OC)cc2c1/C=C/C(=O)c1ccncc1 , its melting point was 214 to 215 °C

OCCCOc1cccc2cccnc12 yielded melting point of 126 to 127 °C

Notebook: CCCCN(c1nc(NCCN)nc(N(CCCC)C2CC(C)(C)NC(C)(C)C2)n1)C1CC(C)(C)NC(C)(C)C1 , melting point read as 140 °C

For Fc1ccc(CN2CC=C(/C=C/c3ccccc3)CC2)cc1 the compound record lists melting point as 115 to 117 °C

Briefly, melting point measured for CCCCN(Cc1c(O)ccc2ccccc12)Cc1c(O)ccc2ccccc12 : 130 to 131 °C

Briefly, melting point measured for CC1(C)CCC(C)(C)c2cc(-c3cc(-c4ccc(C(=O)O)cc4)ccc3CCCO)ccc21 : 203 °C

melting point for CC1(C)Oc2ccc(C#N)cc2[C@@H](n2c(=O)[nH]c3ccccc32)[C@@H]1O (relative stereo) is 255 to 257 °C

# melting point (compound: COC(=O)C1=NC2=COc3cc(C)c(Cl)cc3N2C1C(=O)O (centres undefined) ) is 240 to 244 °C

Input CC#CCOc1ccc(S(=O)(=O)N2CCOCC2C(=O)O)cc1 (centres undefined) . Output melting point: 40 to 42 °C

Record CC(C)(C)c1cc(SCCC(=O)NC2CCC3CC2C3(C)C)cc(C(C)(C)C)c1O (centres undefined) , field melting point: 152 to 154 °C

Reported melting point of COc1ccc(C(=O)Nc2ccccc2)cc1Nc1ccc(C2=NC(C)(C)CO2)cc1 : 221 to 222 °C
